- Tested on: ATP;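 further: ATP exposure 15 min at 22 °C before imaging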
- ASSAY_COMMENT: switch fluorescence ratio, 500 uM ATP over buffer (Cy3 cluster intensity, sum of 5 cycles each) (fold (ratio)); higher = stronger signal-on switching upon ATP binding; sequences stand for … in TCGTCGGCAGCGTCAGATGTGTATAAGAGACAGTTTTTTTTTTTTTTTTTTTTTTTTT…TC
- MEASUREMENT_SETUP: aptamer strand: ATP DNA aptamer (quencher-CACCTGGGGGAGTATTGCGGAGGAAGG + anchor), 100 nM annealed; ATP concentration: 500 uM
MEASURED_METRIC: switch fluorescence ratio
Keep the answer to the number alone.

Q) Entry ATAAGAGACT has what switch fluorescence ratio?
A) 1.01

Q) Entry CGGGGTGCGA has what switch fluorescence ratio?
A) 1.02

Q) Entry TGTTGGGATG has what switch fluorescence ratio?
A) 1.01

Q) Entry ATATTGGCTA has what switch fluorescence ratio?
A) 1

Q) Entry AGAATCAGCA has what switch fluorescence ratio?
A) 1.01

Q) Entry GGAAGGTGGT has what switch fluorescence ratio?
A) 0.987

Q) Entry AGTTGTCTCG has what switch fluorescence ratio?
A) 1.01

Q) Entry ACATCGGATG has what switch fluorescence ratio?
A) 0.995

Q) Entry TCATTTTGTT has what switch fluorescence ratio?
A) 1

* * *

- System: ATP;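 further: ATP exposure 15 min at 22 °C before imaging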
- ASSAY_COMMENT: switch fluorescence ratio, 500 uM ATP over buffer (Cy3 cluster intensity, sum of 5 cycles each) (fold (ratio)); higher = stronger signal-on switching upon ATP binding; sequences stand for … in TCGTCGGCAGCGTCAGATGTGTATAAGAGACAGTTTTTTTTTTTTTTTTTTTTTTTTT…TC
- MEASUREMENT_SETUP: aptamer strand: ATP DNA aptamer (quencher-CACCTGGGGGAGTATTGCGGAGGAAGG + anchor), 100 nM annealed; ATP concentration: 500 uM
Would you please tag the item True when its switch fluorescence ratio is 1 or above, and False when it is below?

Q) In plain terms: is recorded switch fluorescence ratio at least 1 for GCTTTAGTGG ?
A) False

Q) In plain terms: is recorded switch fluorescence ratio at least 1 for GTTTTGGGTA ?
A) True

Q) In plain terms: is recorded switch fluorescence ratio at least 1 for TCTCTGTAGG ?
A) True

Q) In plain terms: is recorded switch fluorescence ratio at least 1 for TGCGGTGTCG ?
A) True

* * *

- Test system: ATP;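 further: ATP exposure 15 min at 22 °C before imaging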
- ASSAY_COMMENT: switch fluorescence ratio, 500 uM ATP over buffer (Cy3 cluster intensity, sum of 5 cycles each) (fold (ratio)); higher = stronger signal-on switching upon ATP binding; sequences stand for … in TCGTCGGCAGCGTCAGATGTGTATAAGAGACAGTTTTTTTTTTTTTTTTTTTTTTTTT…TC
- MEASUREMENT_SETUP: aptamer strand: ATP DNA aptamer (quencher-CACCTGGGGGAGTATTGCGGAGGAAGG + anchor), 100 nM annealed; ATP concentration: 500 uM
MEASURED_METRIC: switch fluorescence ratio
Keep the answer to the number alone.

Q) // lookup switch fluorescence ratio | system=ATP | key= TTTGAGTCTT;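 further: ATP exposure 15 min at 22 °C before imaging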
A) 1

Q) // lookup switch fluorescence ratio | system=ATP | key= TCACTAGAGT;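 further: ATP exposure 15 min at 22 °C before imaging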
A) 0.972

Q) // lookup switch fluorescence ratio | system=ATP | key= ACGGGGCTTT;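 further: ATP exposure 15 min at 22 °C before imaging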
A) 1.05

Q) // lookup switch fluorescence ratio | system=ATP | key= AGAACGAAGG;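 further: ATP exposure 15 min at 22 °C before imaging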
A) 0.962

Q) // lookup switch fluorescence ratio | system=ATP | key= AGAGACCAGC;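 further: ATP exposure 15 min at 22 °C before imaging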
A) 1.07

Q) // lookup switch fluorescence ratio | system=ATP | key= GCAGTGAGGG;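 further: ATP exposure 15 min at 22 °C before imaging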
A) 0.991

Q) // lookup switch fluorescence ratio | system=ATP | key= AGATTATAGC;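 further: ATP exposure 15 min at 22 °C before imaging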
A) 1.02

Q) // lookup switch fluorescence ratio | system=ATP | key= GGAGACGATA;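 further: ATP exposure 15 min at 22 °C before imaging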
A) 1.04

Q) // lookup switch fluorescence ratio | system=ATP | key= AAGGCTAAGC;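 further: ATP exposure 15 min at 22 °C before imaging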
A) 1.02

Q) // lookup switch fluorescence ratio | system=ATP | key= TTGATCAGAG;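 further: ATP exposure 15 min at 22 °C before imaging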
A) 1.01

Q) // lookup switch fluorescence ratio | system=ATP | key= CTTTATAGTT;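 further: ATP exposure 15 min at 22 °C before imaging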
A) 1.02

Q) // lookup switch fluorescence ratio | system=ATP | key= GGGGAACAGT;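 further: ATP exposure 15 min at 22 °C before imaging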
A) 0.979

Q) // lookup switch fluorescence ratio | system=ATP | key= TTGGTTATGT;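 further: ATP exposure 15 min at 22 °C before imaging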
A) 0.969

Q) // lookup switch fluorescence ratio | system=ATP | key= AGGGAAAGGA;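 further: ATP exposure 15 min at 22 °C before imaging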
A) 0.989

Q) // lookup switch fluorescence ratio | system=ATP | key= TTAACATGGG;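 further: ATP exposure 15 min at 22 °C before imaging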
A) 1

Q) // lookup switch fluorescence ratio | system=ATP | key= AGGCGGTAGC;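 further: ATP exposure 15 min at 22 °C before imaging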
A) 1.02

Q) // lookup switch fluorescence ratio | system=ATP | key= CATAGCAAGG;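 further: ATP exposure 15 min at 22 °C before imaging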
A) 1.66

Q) // lookup switch fluorescence ratio | system=ATP | key= AGTGACCTAG;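 further: ATP exposure 15 min at 22 °C before imaging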
A) 1.02

Q) // lookup switch fluorescence ratio | system=ATP | key= GAGGGATTGG;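 further: ATP exposure 15 min at 22 °C before imaging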
A) 1.05

Q) // lookup switch fluorescence ratio | system=ATP | key= TGATCTCTTT;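 further: ATP exposure 15 min at 22 °C before imaging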
A) 1.03
